# System: Candida albicans
# test_details: Tested for minimum inhibitory concentration against Candida albicans 124 (Candida albicans) at pH of 4.5.
# Type: functional
property_name: MIC

In the examples that follow, each entry is paired with its recorded MIC.
[
  {
    "smiles_data": "CC[C@H](C)[C@H]1C(=O)NCC(=O)N(C)[C@@H](C(C)C)C(=O)N[C@@H](Cc2ccc(OC)cc2)C(=O)N[C@@H](C)C(=O)N[C@H](C)C(=O)N2CCCC[C@H]2C(=O)N(C)[C@@H](C(C)C)C(=O)N[C@@H](C(C)C)C(=O)N(C)[C@@H](CC(=O)OC(C)(C)C)C(=O)N(C)[C@@H]([C@@H](C)CC)C(=O)N1C",
    "MIC": "> 100 µg/mL"
  },
  {
    "smiles_data": "CC[C@@H](C)[C@H]1C(=O)NCC(=O)N(C)[C@@H](C(C)C)C(=O)N[C@@H](Cc2ccc(OC)cc2)C(=O)O[C@H](C)C(=O)N2CCCC[C@H]2C(=O)N(C)[C@@H](C(C)C)C(=O)N[C@@H](C(C)C)C(=O)N(C)[C@@H](CC(=O)NC[Si](C)(C)C)C(=O)N(C)[C@@H]([C@@H](C)CC)C(=O)N1C",
    "MIC": "> 100 µg/mL"
  },
  {
    "smiles_data": "CC[C@@H](C)[C@H]1C(=O)NCC(=O)N(C)[C@@H](C(C)C)C(=O)N[C@@H](Cc2ccc(OC)cc2)C(=O)O[C@H](C)C(=O)N2CCCC[C@H]2C(=O)N(C)[C@@H](C(C)C)C(=O)N[C@@H](C(C)C)C(=O)N(C)[C@@H](CC(=O)NCCN(C)C)C(=O)N(C)[C@@H]([C@@H](C)CC)C(=O)N1C",
    "MIC": "> 100 µg/mL"
  },
  {
    "smiles_data": "CC[C@@H](C)[C@H]1C(=O)NCC(=O)N(C)[C@@H](C(C)C)C(=O)N[C@@H](Cc2ccc(OC)cc2)C(=O)O[C@H](C)C(=O)N2CCCC[C@H]2C(=O)N(C)[C@@H](C(C)C)C(=O)N[C@@H](C(C)C)C(=O)N(C)[C@@H](CCN=[N+]=[N-])C(=O)N(C)[C@@H]([C@@H](C)CC)C(=O)N1C",
    "MIC": "> 100 µg/mL"
  },
  {
    "smiles_data": "CC[C@@H](C)[C@H]1C(=O)NCC(=O)N(C)[C@@H](C(C)C)C(=O)N[C@@H](Cc2ccc(OC)cc2)C(=O)O[C@@H](C)C(=O)N2CCCC[C@H]2C(=O)N(C)[C@@H](C(C)C)C(=O)N[C@@H](C(C)C)C(=O)N(C)[C@@H](CC(=O)O)C(=O)N(C)[C@@H]([C@@H](C)CC)C(=O)N1C",
    "MIC": "3.13 µg/mL"
  }
]

Below: the item to evaluate.
Request: For the molecule CC[C@@H](C)[C@H]1C(=O)NCC(=O)N(C)[C@@H](C(C)C)C(=O)N[C@@H](Cc2ccc(OCc3ccc(Br)cc3)cc2)C(=O)O[C@H](C)C(=O)N2CCCC[C@H]2C(=O)N(C)[C@@H](C(C)C)C(=O)N[C@@H](C(C)C)C(=O)N(C)[C@@H](CC(=O)O)C(=O)N(C)[C@@H]([C@@H](C)CC)C(=O)N1C , what MIC is on record?
Result: > 100 µg/mL
